# Tested on: LOUCY;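 also: growth inhibition of human LOUCY cells, read out with a cell viability assay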
# assayComment: cells
# Format: functional, cell-based, Homo sapiens
# protocolConditions: Homo sapiens, LOUCY
# Description: SANGER: Inhibition of human LOUCY cell growth in a cell viability assay.
property: IC50

>>> obsvalue("COc1ccc(N(C(=O)Oc2c(C)cccc2C)c2ccnc(Nc3ccc(N4CCN(C)CC4)cc3)n2)c(OC)c1")
"> 5120 nM"

The recorded IC50 for entry Cc1ccc(C(=O)Nc2ccc(CN3CCN(C)CC3)c(C(F)(F)F)c2)cc1C#Cc1cnc2cccnn12 [PONATINIB] equals > 512 nM

====

# Test system: COLO-680N;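 also: cell viability assay used to measure inhibition of COLO-680N cell growth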
# assayComment: cells
# Type: functional, cell-based
# protocolConditions: Homo sapiens
# Description: SANGER: Inhibition of human COLO-680N cell growth in a cell viability assay.
property: IC50

Here is how some molecules turned out for IC50.
>>> obsvalue("CC1=C(/C=C/C(C)=C/C=C/C(C)=C/C(=O)O)C(C)(C)CCC1")
"> 10 µM"
>>> obsvalue("CCCCCCCCCCCC1=C(O)C(=O)C=C(O)C1=O")
"19.4 µM"

Switching to the query record.
Field IC50 (entry CN(C)CCOc1ccc(-c2nc(-c3ccncc3)c(-c3ccc4c(c3)CC/C4=N\O)[nH]2)cc1 ) reads > 5 µM

====

# Test system: BB49-HNC;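 also: cell viability assay read-out, reported as inhibition of BB49-HNC cell growth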
# assayComment: cells
# Format: functional, cell-based, Homo sapiens
# protocolConditions: Homo sapiens, BB49-HNC
# Description: SANGER: Inhibition of human BB49-HNC cell growth in a cell viability assay.
property: IC50

>>> obsvalue("CN(NC(=O)CC(=O)NN(C)C(=S)c1ccccc1)C(=S)c1ccccc1")
"0.126 µM"
>>> obsvalue("NC1(c2ccc(-c3nc4ccn5c(=O)[nH]nc5c4cc3-c3ccccc3)cc2)CCC1")
"> 4 µM"
>>> obsvalue("COc1ccc(-c2cc3nccn3c(Nc3ncccc3C(N)=O)n2)cc1OC")
"3.3 µM"
>>> obsvalue("CC1=C(/C=C/C(C)=C/C=C/C(C)=C/C(=O)O)C(C)(C)CCC1")
"> 10 µM"
>>> obsvalue("Cc1ccc(NC(=O)c2ccc(CN3CCN(C)CC3)cc2)cc1Nc1nccc(-c2cccnc2)n1")
"> 2 µM"

From here, focus on the item given below.
// compound Cc1ccc(-n2nc(C(C)(C)C)cc2NC(=O)Nc2ccc(OCCN3CCOCC3)c3ccccc23)cc1 , assay BB49-HNC, IC50 value: > 10 µM

====

# Tested on: M059J
# assayComment: cells
# Assay type: functional, cell-based
# protocolConditions: Homo sapiens
# Description: SANGER: Inhibition of human M059J cell growth in a cell viability assay.
property: IC50 (µM)
Respond with the bare value in µM.

Example entries begin here.
>>> obsvalue("CN(NC(=O)CC(=O)NN(C)C(=S)c1ccccc1)C(=S)c1ccccc1")
0.0206
>>> obsvalue("NC(=O)Nc1cc(-c2cccc(F)c2)sc1C(=O)N[C@H]1CCCNC1")
1.07
>>> obsvalue("O=S(=O)(O)c1ccc2cc(/N=N/c3cc(S(=O)(=O)O)c4cccnc4c3O)ccc2c1")
14.9

Moving on to the next compound.
The recorded IC50 for C/C(=C\c1csc(C)n1)[C@@H]1C[C@@H]2O[C@]2(C)CCC[C@H](C)[C@H](O)[C@@H](C)C(=O)C(C)(C)[C@@H](O)CC(=O)O1 is 0.00134

====

# Tested on: EW-18;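 also: growth inhibition of EW-18 cells, read out by a cell viability assay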
# assayComment: cells
# Format: functional, cell-based, Homo sapiens
# protocolConditions: Homo sapiens, EW-18; read-out: IC50
# Description: SANGER: Inhibition of human EW-18 cell growth in a cell viability assay.
pIC50: −log10 of the molar value.
pIC50 of 6 or higher: yes. Under 6: no.

>>> categorylabel("CN(C)CCOc1ccc(-c2nc(-c3ccncc3)c(-c3ccc4c(c3)CC/C4=N\\O)[nH]2)cc1 [SB590885]")
"no"
>>> categorylabel("C/C(=C\\c1csc(C)n1)[C@@H]1C[C@@H]2O[C@]2(C)CCC[C@H](C)[C@H](O)[C@@H](C)C(=O)C(C)(C)[C@@H](O)CC(=O)O1 [PATUPILONE]")
"yes"

Q) Answer whether pIC50 of CCCCCCCCCCCC1=C(O)C(=O)C=C(O)C1=O [EMBELIN] is greater than or equal to 6.
A) no

Q) API: above_or_equal(metric=pIC50, cutoff=6) for item C[C@@H](Oc1cc(-c2cnn(C3CCNCC3)c2)cnc1N)c1c(Cl)ccc(F)c1Cl [CRIZOTINIB]
A) no

Q) Kindly determine if pIC50 recorded for CC(C)C[C@H](NC(=O)[C@H](Cc1ccccc1)NC(=O)c1cnccn1)B(O)O [BORTEZOMIB] is above or exactly 6.
A) yes

Q) Check if pIC50 >= 6 (inclusive). Item: CO[C@@H]1[C@H](N(C)C(=O)c2ccccc2)C[C@H]2O[C@]1(C)n1c3ccccc3c3c4c(c5c6ccccc6n2c5c31)C(=O)NC4 [MIDOSTAURIN]
A) yes

Q) Is reported pIC50 greater than or equal to 6 here: Nc1ccccc1NC(=O)c1ccc(CNC(=O)OCc2cccnc2)cc1 [ENTINOSTAT]
A) no

Q) Given NC1(c2ccc(-c3nc4ccn5c(=O)[nH]nc5c4cc3-c3ccccc3)cc2)CCC1 [MK-2206] , state whether its pIC50 is at least 6.
A) no
